Test: inhibitors of TNFa-induced NFkB p65 translocation, primary screen, imaging, HUVEC, MLSMR starter and 10KST1 sets (AID 438);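 further: compound added about 3h40 before a 20 min TNFalpha stimulation; signal is the nuclear over cytoplasmic p65 intensity ratio per well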
Details: HUVEC TNFa-induced p65 nuclear translocation; at 2 µM, active compounds read high, 0% TNFa-plus-vehicle, 100% no-TNFa wells
readout: inhibition (%)

| compound | readout | result unit | value observed |
| --- | --- | --- | --- |
| CC(C)c1cc(C(=O)NCc2ccco2)no1 | inhibition | % | 3.7 |
| Cc1ccc(/C=c2\sc3nc(-c4ccccc4Br)nn3c2=O)o1 | inhibition | % | -5 |
| O=C(NC1CC1)c1ccc(S(=O)(=O)NCC2CCCCC2)cc1 | inhibition | % | -8 |
| CC(=O)Nc1ccc(N=Cc2ccc[nH]2)cc1 | inhibition | % | 3.4 |
| CC(C)OC(=O)c1ccc(NC(=O)C2C3CC4OC(=O)C2C4C3)cc1 (centres undefined) | inhibition | % | -10.5 |
| Cc1cccc(CC2CC(=O)N(c3ccccc3)C2=O)c1 (centres undefined) | inhibition | % | -2.9 |
| CC1CCN(C(=O)CSc2nc3ccccc3[nH]2)CC1 | inhibition | % | 0.5 |
| c1ccn2c(SCc3ccc4c(c3)OCCO4)nnc2c1 | inhibition | % | -10.5 |
| CC1CCC(NC(=O)Cn2ncc3ccccc32)CC1 (centres undefined) | inhibition | % | -3.7 |
| COc1ccc(N2CCN(c3ccc(NC(=O)C4CCCCC4)cc3C#N)CC2)cc1 | inhibition | % | -0.6 |
| COc1ccc(-c2nnc(SCC(=O)c3cc(C)n(Cc4cccs4)c3C)o2)cc1 | inhibition | % | -13.7 |
| COc1ccc(S(=O)(=O)N2CCOCC2)cc1C(=O)Nc1cc(C)on1 | inhibition | % | 1.1 |
| COc1ccc(OC)c(S(=O)(=O)N2c3ccccc3CC2C)c1 (centres undefined) | inhibition | % | -6.3 |
| COc1ccc(-c2cc(C(F)(F)F)nc(N3CCN(c4ccc(F)cc4)CC3)n2)cc1OC | inhibition | % | -10.7 |
